Reference source for all entries: paper PMC11334105

- measurement_notes: HPLC-based GSH reactivity and stability assay
- Type: physicochemical
- cond: PBS buffer with 5 mM glutathione (GSH); 5 mM glutathione, PBS pH 7.4, corrected for aqueous degradation; mean ± SD, n = 2; read-out: t1/2 GSH (converted)
measure: half-life at 250 μM (h)
Just the number please, in h, no unit attached.

>  <molecule>
CN1CCCC1COc1nc(N2CCN(C(=O)n3ccnc3)CC2)c2cc(Cl)c(-c3c(O)cccc3F)cc2n1 (centres unmarked) [3b]

>  <numeric_value>
40

$$$$

Kindly consider the entry below.
Query (molecule): O=C(N1CCN(c2ncnc3cc(-c4c(O)cccc4F)c(Cl)cc23)CC1)n1ccnc1 [3a] ; field requested: half-life at 250 μM
35

---

- assayed_system: KRAS^G12C (Homo sapiens, UniProt P01116, G12C)
- Sequence (P01116 1-188 isoform P01116-2 G12C): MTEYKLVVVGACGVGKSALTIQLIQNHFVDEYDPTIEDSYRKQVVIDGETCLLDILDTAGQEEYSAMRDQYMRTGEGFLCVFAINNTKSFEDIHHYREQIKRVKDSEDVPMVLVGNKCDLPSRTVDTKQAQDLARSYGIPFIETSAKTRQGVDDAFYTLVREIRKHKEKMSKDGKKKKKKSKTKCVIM
- measurement_notes: MANT-GDP nucleotide exchange assay (SOS1, GppNHp)
- Assay type: biochemical
Quick list: pIC50 per entry.
Entry type: numeric. Quantity: pIC50, the -log10 of concentration in molar units.

>  <compound>
O=C(C1CN1)N1CCN(c2ncnc3cc(-c4c(O)cccc4F)c(Cl)cc23)CC1 (centres unmarked)

>  <pIC50>
3.70

$$$$

Kindly consider the entry below.
Query (compound): CN1CCCC1COc1nc(N2CCN(C(=O)C3CN3)CC2)c2cc(Cl)c(-c3c(O)cccc3F)cc2n1 (centres unmarked) ; field requested: pIC50
4.07

---

- measurement_notes: HPLC-based GSH reactivity and stability assay
- Type: physicochemical
- cond: free energy barrier calculated from t1/2 and GSH^– concentration
Quick list: experimental ΔG^#(GSH) per entry.
Just the number please, in kcal/mol, no unit attached.

>  <molecule>
O=C(N1CCN(c2ncnc3cc(-c4c(O)cccc4F)c(Cl)cc23)CC1)n1ccnc1

>  <unit_label>
kcal/mol

>  <numeric_value>
19.6

$$$$

Kindly consider the entry below.
Query (molecule): CN1CCCC1COc1nc(N2CCN(C(=O)n3ccnc3)CC2)c2cc(Cl)c(-c3c(O)cccc3F)cc2n1 (stereo not shown) ; field requested: experimental ΔG^#(GSH)
19.7

---

- assayed_system: KRAS^wt (Homo sapiens)
- Sequence (P01116 1-188 isoform P01116-2): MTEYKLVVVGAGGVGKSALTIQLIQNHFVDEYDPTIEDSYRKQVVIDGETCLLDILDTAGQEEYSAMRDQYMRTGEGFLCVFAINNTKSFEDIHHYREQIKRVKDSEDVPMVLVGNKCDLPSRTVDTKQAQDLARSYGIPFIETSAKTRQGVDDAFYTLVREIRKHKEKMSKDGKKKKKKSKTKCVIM
measure: IC50
I'd appreciate it if you included the unit after the number.

Request - read-out IC50 | tested on KRAS^wt (Homo sapiens) | molecule C=CC(=O)N1CCN(c2nc(OCC3CCCN3C)nc3cc(-c4c(O)cccc4F)c(Cl)cc23)CC1 (stereo not shown) [1b]
177 µM

---

- assayed_system: KRAS^G12C (Homo sapiens, UniProt P01116, G12C)
- measurement_notes: LC-MS occupancy measurements (KI and kinact determination)
- Assay type: binding
measure: pKi
Entry type: numeric. Quantity: pKi, the -log10 of concentration in molar units.

>  <compound>
CN1CCCC1COc1nc(N2CCN(C(=O)C3CN3)CC2)c2cc(Cl)c(-c3c(O)cccc3F)cc2n1 (centres unmarked)

>  <numeric_value>
3.95

$$$$

Query (compound): O=C(C1CN1)N1CCN(c2ncnc3cc(-c4c(O)cccc4F)c(Cl)cc23)CC1 (centres unmarked) ; field requested: pKi
4.65
